- Experimental target: N-arachidonyl glycine receptor (Homo sapiens)
- Sequence (Q14330 whole entry, the tested form may be a part): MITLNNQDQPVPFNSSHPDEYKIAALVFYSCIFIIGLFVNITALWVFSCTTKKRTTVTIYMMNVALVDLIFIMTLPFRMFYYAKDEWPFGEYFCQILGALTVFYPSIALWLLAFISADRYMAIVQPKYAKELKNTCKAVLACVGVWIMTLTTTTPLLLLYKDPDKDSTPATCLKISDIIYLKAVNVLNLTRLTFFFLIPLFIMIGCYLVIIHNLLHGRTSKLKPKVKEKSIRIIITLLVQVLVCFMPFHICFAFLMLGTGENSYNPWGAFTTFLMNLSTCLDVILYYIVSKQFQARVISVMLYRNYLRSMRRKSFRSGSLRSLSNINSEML
- Measurement description: Agonist activity at human GPR18 expressed in CHO cells assessed as induction of beta-arrestin recruitment by beta-galactosidase enzyme fragment complementation method relative to delta9-THC
- Type: cell-based
- Set-up: concentration or dose not given beside the values
Activity vs 5%: less than gives 1.0; not less than gives 0.0.

| Compound | Category |
| --- | --- |
| O=C1/C(=C/c2cccc(OCc3ccccc3)c2)N=C2SCCCCN12 | 0.0 |
| CCOC(=O)C1CN2C(=NC(=O)C2(c2ccccc2)c2ccccc2)S1 (stereo not drawn) | 0.0 |
| COc1cccc(/C=C2\N=C3SCCCN3C2=O)c1OC | 0.0 |
| O=C1N=C2SCCCCN2C1(c1ccccc1)c1ccccc1 | 0.0 |
| O=C1/C(=C/c2cccc(OCc3ccccc3)c2)N=C2SCCCN12 | 1.0 |
| O=C1/C(=C/c2ccccc2Cl)N=C2SCCCN12 | 0.0 |
| O=C1/C(=C/c2cccc(OCc3ccc(Cl)cc3Cl)c2)N=C2SCCCN12 | 1.0 |
| O=C1/C(=C/c2cccc(OCc3ccc(F)cc3)c2)N=C2SCCCCN12 | 1.0 |
| O=C1/C(=C/c2cccc(OCc3ccccc3Cl)c2)N=C2SCCCN12 | 0.0 |
| O=C1/C(=C/c2cccc(Cl)c2)N=C2SCCCN12 | 1.0 |
| O=C1N2CCCSC2=NC1(c1ccccc1)c1ccccc1 | 0.0 |
| CCOC(=O)COc1cccc(/C=C2\N=C3SCCCCN3C2=O)c1 | 0.0 |
| COc1ccc(/C=C2\N=C3SCCCN3C2=O)cc1 | 1.0 |
| C/C(=C1/N=C2SCCCCN2C1=O)c1ccccc1 | 0.0 |
| O=C1/C(=C/c2cccc(F)c2F)N=C2SCCCN12 | 1.0 |
| O=C1/C(=C/c2cccc(Oc3ccccc3)c2)N=C2SCCCCN12 | 1.0 |
| O=C1/C(=C/c2ccc(-c3ccccc3)cc2)N=C2SCCCCN12 | 0.0 |
| O=C1N2CCCCSC2=NC1(c1ccccc1)c1ccccc1 | 0.0 |
| O=C1/C(=C/c2ccc(Cl)cc2)N=C2SCCCN12 | 0.0 |
| COc1ccccc1/C=C1\N=C2SCCCN2C1=O | 1.0 |
| CC(C)c1ccc(/C=C2\N=C3SCCCN3C2=O)cc1 | 1.0 |
| CN(C)c1ccc(/C=C2\N=C3SCCCN3C2=O)cc1 | 0.0 |
| O=C1/C(=C/C=C/c2ccccc2)N=C2SCCCN12 | 0.0 |
| O=C1/C(=C/c2ccccc2F)N=C2SCCCN12 | 0.0 |
| O=C(Oc1cccc(/C=C2\N=C3SCCCN3C2=O)c1)c1ccccc1 | 1.0 |
| O=C1/C(=C/c2cccc(Cl)c2Cl)N=C2SCCCN12 | 0.0 |
| Cc1ccc(C(=O)Oc2cccc(/C=C3\N=C4SCCCCN4C3=O)c2)cc1 | 1.0 |
| O=C1/C(=C/c2cccc(OCc3ccc(Cl)cc3)c2)N=C2SCCCN12 | 1.0 |
| O=C(Oc1cccc(/C=C2\N=C3SCCCN3C2=O)c1)c1ccc(Cl)cc1 | 1.0 |
| O=C1/C(=C/c2ccc(Cl)cc2Cl)N=C2SCCCN12 | 1.0 |
| O=C1/C(=C/c2cccc(OCc3ccc(Cl)c(Cl)c3)c2)N=C2SCCCN12 | 1.0 |
| O=C1/C(=C/c2ccc([N+](=O)[O-])cc2)N=C2SCCCN12 | 1.0 |
| O=C1N=C2SCCN2C1(c1ccccc1)c1ccccc1 | 0.0 |
| O=C1/C(=C/c2ccc(F)cc2F)N=C2SCCCN12 | 0.0 |
| O=C1N=C2SCCCN2C1(c1ccccc1)c1ccccc1 | 0.0 |
| O=C1/C(=C/c2ccc(Br)cc2)N=C2SCCCN12 | 1.0 |
| O=C1/C(=C/c2cccc(OCc3ccc(Cl)cc3)c2)N=C2SCCCCN12 | 1.0 |
| O=C1/C(=C/c2cccc([N+](=O)[O-])c2)N=C2SCCCN12 | 1.0 |
| O=C1/C(=C/c2cccc(OCc3cccc(Cl)c3)c2)N=C2SCCCCN12 | 1.0 |
| O=C1/C(=C/c2cccc(OCc3ccc(Cl)cc3Cl)c2)N=C2SCCCCN12 | 1.0 |
| O=C1/C(=C/c2c(Cl)cccc2Cl)N=C2SCCCN12 | 0.0 |
| COc1ccc(/C=C2\N=C3SCCCN3C2=O)cc1OC | 1.0 |

###

- Experimental target: Cannabinoid receptor 1 (Homo sapiens, UniProt P21554)
- Sequence (P21554 whole entry): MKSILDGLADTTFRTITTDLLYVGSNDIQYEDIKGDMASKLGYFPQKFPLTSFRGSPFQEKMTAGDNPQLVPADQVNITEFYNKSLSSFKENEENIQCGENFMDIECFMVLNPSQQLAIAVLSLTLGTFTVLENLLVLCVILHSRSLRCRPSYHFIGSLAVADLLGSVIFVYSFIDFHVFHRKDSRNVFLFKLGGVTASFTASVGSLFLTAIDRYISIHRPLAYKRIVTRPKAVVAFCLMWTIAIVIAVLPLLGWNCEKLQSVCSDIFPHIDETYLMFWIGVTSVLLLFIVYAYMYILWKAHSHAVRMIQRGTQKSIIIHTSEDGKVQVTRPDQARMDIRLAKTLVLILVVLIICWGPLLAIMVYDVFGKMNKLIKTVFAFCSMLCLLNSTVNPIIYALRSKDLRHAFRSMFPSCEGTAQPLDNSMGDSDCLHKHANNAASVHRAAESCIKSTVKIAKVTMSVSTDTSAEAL
- Measurement description: Displacement of [3H]CP55,940 from human recombinant CB1 receptor expressed in CHO-K1 cells at 10 uM
- Type: cell-based

| Structure smiles | Unit name | inhibition |
| --- | --- | --- |
| CCCCC/C=C\C/C=C\C/C=C\C/C=C\CCCC(=O)O[C@H](CO)COP(=O)(O)O[C@@H]1[C@@H](O)[C@H](O)[C@@H](O)[C@H](O)[C@@H]1O | % | 0 |
| Cc1ccc(C(=O)Oc2cccc(/C=C3\N=C4SCCCCN4C3=O)c2)cc1 | % | 35 |
| CCCCC/C=C\C/C=C\C/C=C\C/C=C\CCCC(=O)NCC(=O)O | % | 43 |
| CN(C)c1ccc(/C=C2\N=C3SCCCN3C2=O)cc1 | % | 29 |
| COc1ccc(/C=C2\N=C3SCCCN3C2=O)cc1 | % | 39 |

###

- Experimental target: Cannabinoid receptor 1 (Homo sapiens, UniProt P21554)
- Measurement description: Intrinsic activity at human recombinant CB1 receptor expressed in HEK293 cell membranes assessed as stimulation of [35S]GTPgammaS binding at 10 uM by liquid scintillation counting method relative to CP55,940
- Assay type: functional
Measured property: Intrinsic activity

| Structure smiles | Measured property | Test result |
| --- | --- | --- |
| O=C1/C(=C/c2cccc(OCc3ccc(Cl)cc3)c2)N=C2SCCCCN12 | Intrinsic activity | -40% |
| O=C1/C(=C/c2cccc(OCc3ccc(F)cc3)c2)N=C2SCCCCN12 | Intrinsic activity | -16% |
| O=C1N=C2SCCCCN2C1(c1ccccc1)c1ccccc1 | Intrinsic activity | -48% |
| O=C1/C(=C/c2cccc(OCc3ccccc3)c2)N=C2SCCCN12 | Intrinsic activity | -33% |
| O=C1/C(=C/c2cccc(Oc3ccccc3)c2)N=C2SCCCCN12 | Intrinsic activity | -37% |
| O=C1/C(=C/c2cccc(Oc3ccccc3)c2)N=C2SCCCN12 | Intrinsic activity | -49% |
| O=C1/C(=C/c2cccc(OCc3ccc(Cl)cc3Cl)c2)N=C2SCCCCN12 | Intrinsic activity | -44% |
| O=C1N2CCCCSC2=NC1(c1ccccc1)c1ccccc1 | Intrinsic activity | -16% |
| O=C1/C(=C/c2cccc(OCc3cccc(Cl)c3)c2)N=C2SCCCCN12 | Intrinsic activity | -14% |
| Cc1c(C(=O)NN2CCOCC2)nn(-c2ccc(Cl)cc2Cl)c1-c1ccc(I)cc1 | Intrinsic activity | -80% |
| O=C1/C(=C/c2cccc(OCc3ccc(Cl)cc3)c2)N=C2SCCCN12 | Intrinsic activity | -16% |
| O=C1/C(=C/c2cccc(OCc3ccc(Cl)cc3Cl)c2)N=C2SCCCN12 | Intrinsic activity | -51% |
| O=C1/C(=C/c2cccc(OCc3ccccc3)c2)N=C2SCCCCN12 | Intrinsic activity | -35% |
| O=C1N2CCCSC2=NC1(c1ccccc1)c1ccccc1 | Intrinsic activity | -31% |

###

- Experimental target: G-protein coupled receptor 35 (Homo sapiens)
- Sequence (Q9HC97 whole entry, the tested form may be a part): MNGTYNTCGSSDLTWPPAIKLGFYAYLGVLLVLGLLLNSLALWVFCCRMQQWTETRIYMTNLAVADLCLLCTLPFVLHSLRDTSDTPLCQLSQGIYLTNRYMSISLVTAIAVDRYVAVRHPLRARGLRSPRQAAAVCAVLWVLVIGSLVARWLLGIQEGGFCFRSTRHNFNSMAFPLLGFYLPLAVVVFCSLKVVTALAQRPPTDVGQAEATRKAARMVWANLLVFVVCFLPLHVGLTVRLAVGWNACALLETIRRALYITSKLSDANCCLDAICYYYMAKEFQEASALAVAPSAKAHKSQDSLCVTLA
- Measurement description: Antagonist activity at human GPR35 assessed as reduction of zaprinast-induced beta-arrestin recruitment by beta-galactosidase enzyme fragment complementation method relative to untreated control
- Design: concentration or dose not given beside the values
- Conditions: concentration not given here

| Structure smiles | Experimental target | inhibition |
| --- | --- | --- |
| O=C1/C(=C/c2ccccc2Cl)N=C2SCCCN12 | G-protein coupled receptor 35 (Homo sapiens) | 49% |
| O=C1/C(=C/c2ccccc2)N=C2SCCCN12 | G-protein coupled receptor 35 (Homo sapiens) | 12% |
| O=C1/C(=C/c2cccc(F)c2F)N=C2SCCCN12 | G-protein coupled receptor 35 (Homo sapiens) | 17% |
| O=C1/C(=C/c2cccc(OCc3ccc(Cl)cc3)c2)N=C2SCCCCN12 | G-protein coupled receptor 35 (Homo sapiens) | 1% |
| COc1ccc(/C=C2\N=C3SCCCN3C2=O)c(OC)c1 | G-protein coupled receptor 35 (Homo sapiens) | 20% |
| O=C1/C(=C/c2cccc(OCc3ccc(Cl)cc3)c2)N=C2SCCCN12 | G-protein coupled receptor 35 (Homo sapiens) | 3% |
| O=C1/C(=C/c2cccc(OCc3cccc(Cl)c3)c2)N=C2SCCCCN12 | G-protein coupled receptor 35 (Homo sapiens) | 25% |

###

- Experimental target: UniProt Q14330
- Measurement description: Antagonist activity against human GPR18 expressed in CHO cells assessed as reduction in delta9-THC-induced beta-arrestin recruitment by beta-galactosidase enzyme fragment complementation method
pIC50: −log10 of the molar value.
Measured property: pIC50

| Structure smiles | Measured property | Qualifier sign | Test result |
| --- | --- | --- | --- |
| O=C(Oc1cccc(/C=C2\N=C3SCCCN3C2=O)c1)c1ccccc1 | pIC50 | = | 5.20 |
| O=C1/C(=C/c2cccc(Cl)c2)N=C2SCCCN12 | pIC50 | < | 5.00 |
| COc1cccc(/C=C2\N=C3SCCCN3C2=O)c1OC | pIC50 | < | 5.00 |
| O=C1/C(=C/c2cccc(OCc3ccccc3Cl)c2)N=C2SCCCCN12 | pIC50 | = | 5.19 |
| O=C1/C(=C/c2cccc(Oc3ccccc3)c2)N=C2SCCCCN12 | pIC50 | = | 4.85 |

FYI, the data here is from ChEMBL document CHEMBL3217528.
